# assayed_target: IR (NIH-3T3 cells over expressing human IGF-1R or IR) (Homo sapiens, UniProt P06213)
# Sequence (P06213 28-1382): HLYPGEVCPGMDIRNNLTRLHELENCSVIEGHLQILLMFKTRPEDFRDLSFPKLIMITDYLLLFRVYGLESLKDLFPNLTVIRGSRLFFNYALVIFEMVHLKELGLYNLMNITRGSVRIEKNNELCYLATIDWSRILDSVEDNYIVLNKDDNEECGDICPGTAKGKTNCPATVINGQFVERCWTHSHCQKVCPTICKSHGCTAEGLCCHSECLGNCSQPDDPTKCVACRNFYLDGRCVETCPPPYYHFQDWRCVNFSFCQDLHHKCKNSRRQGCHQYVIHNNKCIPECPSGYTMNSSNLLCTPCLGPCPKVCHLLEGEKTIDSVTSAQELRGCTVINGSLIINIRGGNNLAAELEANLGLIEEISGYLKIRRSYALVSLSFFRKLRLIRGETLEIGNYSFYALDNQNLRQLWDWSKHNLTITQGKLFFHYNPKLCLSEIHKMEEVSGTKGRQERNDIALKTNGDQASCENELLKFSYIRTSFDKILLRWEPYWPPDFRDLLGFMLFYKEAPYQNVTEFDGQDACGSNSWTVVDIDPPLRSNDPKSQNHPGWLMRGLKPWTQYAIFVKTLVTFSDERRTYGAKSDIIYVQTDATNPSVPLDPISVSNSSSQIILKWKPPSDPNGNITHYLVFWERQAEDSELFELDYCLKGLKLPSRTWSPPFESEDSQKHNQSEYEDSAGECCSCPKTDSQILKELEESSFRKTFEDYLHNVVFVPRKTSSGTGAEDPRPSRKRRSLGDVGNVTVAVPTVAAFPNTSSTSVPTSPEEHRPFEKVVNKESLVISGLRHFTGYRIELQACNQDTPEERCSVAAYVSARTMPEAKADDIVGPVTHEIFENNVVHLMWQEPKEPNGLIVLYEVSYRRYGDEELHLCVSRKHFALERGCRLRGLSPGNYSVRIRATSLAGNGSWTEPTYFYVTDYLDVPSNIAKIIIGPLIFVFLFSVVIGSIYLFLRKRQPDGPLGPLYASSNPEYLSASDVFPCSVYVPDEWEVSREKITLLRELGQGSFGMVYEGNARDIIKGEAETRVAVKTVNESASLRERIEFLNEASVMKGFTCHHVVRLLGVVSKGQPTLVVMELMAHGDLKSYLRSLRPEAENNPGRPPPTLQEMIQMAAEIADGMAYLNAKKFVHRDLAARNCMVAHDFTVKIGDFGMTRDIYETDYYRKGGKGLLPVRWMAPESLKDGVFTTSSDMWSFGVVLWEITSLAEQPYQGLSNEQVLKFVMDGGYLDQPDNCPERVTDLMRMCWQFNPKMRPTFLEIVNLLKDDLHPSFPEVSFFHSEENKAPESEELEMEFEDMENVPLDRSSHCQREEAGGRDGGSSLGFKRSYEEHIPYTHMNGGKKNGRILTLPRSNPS
# measurement_protocol: IR cellular autophosphorylation (DELFIA)
# run_parameters: NIH-3T3 cells over expressing IR, insulin stimulated

item_smiles: COc1cc(N2CCC(CCS(C)(=O)=O)CC2)ccc1Nc1nccc(-c2c(-c3cccc(C(=O)Nc4c(F)cccc4F)c3)nc3ccccn23)n1
IC50: 100 to 500 nM
//
item_smiles: CCOc1ccc(-c2nc3ccccn3c2-c2ccnc(Nc3cc(C)c(N4CCCN(CCS(C)(=O)=O)CC4)cc3OC)n2)cc1C(=O)Nc1c(F)cccc1F
IC50: < 100 nM
//
item_smiles: COc1cc(N2CCC(N3CCCCC3)CC2)c(F)cc1Nc1nccc(-c2c(-c3cccc(C(=O)Nc4c(F)cccc4F)c3)nc3ccccn23)n1
IC50: < 100 nM
//
item_smiles: CCOc1cc(N2CCN(CCS(C)(=O)=O)CC2)c(C)cc1Nc1nccc(-c2c(-c3ccc(OCC)c(C(=O)Nc4c(F)cccc4F)c3)nc3ccccn23)n1
IC50: < 100 nM
//
item_smiles: COc1cc(N2CCN(CCS(C)(=O)=O)CC2)c(C)cc1Nc1nccc(-c2c(-c3ccc(OC)c(C(=O)Nc4c(F)cccc4F)c3)nc3ccccn23)n1
IC50: < 100 nM
//
item_smiles: CCOc1ccc(-c2nc3ccccn3c2-c2ccnc(Nc3ccc(N4CCN(C(C)C)CC4)cc3OC)n2)cc1C(=O)Nc1c(F)cccc1F
IC50: < 100 nM
//
item_smiles: CCOc1cc(N2CCC(N3CCN(S(C)(=O)=O)CC3)CC2)ccc1Nc1nccc(-c2c(-c3ccc(OCC)c(C(=O)Nc4c(F)cccc4F)c3)nc3ccccn23)n1
IC50: < 100 nM
//
item_smiles: CS(=O)(=O)CCN1CCN(C2CCN(c3ccc(Nc4nccc(-c5c(-c6cccc(C(=O)Nc7c(F)cccc7F)c6)nc6ccccn56)n4)c(OCC(F)(F)F)c3)CC2)CC1
IC50: < 100 nM
//
item_smiles: COc1cc(CCCN2CCN(C)CC2)ccc1Nc1nccc(-c2c(-c3ccc(OC)c(C(=O)Nc4c(F)cccc4F)c3)nc3ccccn23)n1
IC50: < 100 nM
//
item_smiles: COc1cc(N2CCN(S(C)(=O)=O)CC2)ccc1Nc1nccc(-c2c(-c3cccc(C(=O)Nc4c(F)cccc4F)c3)nc3ccccn23)n1
IC50: < 100 nM
//
item_smiles: COc1cc(N2CCC(N3CCN(C(C)=O)CC3)CC2)ccc1Nc1nccc(-c2c(-c3cccc(C(=O)Nc4c(F)cccc4F)c3)nc3ccccn23)n1
IC50: < 100 nM
//
item_smiles: COc1ccc(-c2nc3cc(C)ccn3c2-c2ccnc(Nc3cccc(OCCN(C)C)c3)n2)cc1C(=O)Nc1c(F)cccc1F
IC50: > 500 nM

* * *

# System: various cell lines of different tumor origins
# measurement_protocol: Inhibition of cell proliferation, InCell Analyzer assay
# Assay type: cell-based
# run_parameters: DK-MG, glioma
pIC50: −log10 of the molar value.

compound: COc1cc(N2CCC(N3CCCCC3)CC2)ccc1Nc1nccc(-c2c(-c3cccc(C(=O)Nc4c(F)cccc4F)c3)nc3ccccn23)n1 [Example 22]
pIC50: 5.30 to 6.00

* * *

# Test system: various cell lines of different tumor origins
# measurement_protocol: Inhibition of cell proliferation, InCell Analyzer assay
# Assay type: cell-based
# run_parameters: RL, lymphoma - non-Hodgkin

item_smiles: COc1cc(N2CCC(N3CCCCC3)CC2)ccc1Nc1nccc(-c2c(-c3cccc(C(=O)Nc4c(F)cccc4F)c3)nc3ccccn23)n1
IC50: 1000 to 5000 nM
